organism: Oryctolagus cuniculus; experiment: Serotonergic activity was assessed in vitro on the New Zealand white rabbit saphenous vein preparation; assay type: functional
Reported pEC50 values for the following molecules.
By convention, pEC50 is the negative base-10 log of a molar concentration.

                                   molecule  obs_value
0     CN(C)CCc1c[nH]c2ccc(CCc3nc(N)no3)cc12       6.70
1  CS(=O)(=O)Nc1ccc(Cc2noc(-c3ccc4[nH]cc(CCN)c4c3)n2)cc1 [L-694247]       7.80
2  CNS(=O)(=O)c1ccc(Cc2noc(-c3ccc4[nH]cc(CCN)c4c3)n2)cc1       7.90
3  CC(=O)Nc1ccc(Cc2noc(-c3ccc4[nH]cc(CCN)c4c3)n2)cc1       7.90
4          Cc1noc(-c2ccc3[nH]cc(CCN)c3c2)n1       6.60

Continue with the next molecule.
INPUT: Look up pEC50 of NCCc1c[nH]c2ccc(Cc3nc(N)no3)cc12 and report it.
OUTPUT: 6.80
